These entries and their values trace back to PubChem BioAssay AID588664.

# inhibition listing for each entry below
SYSTEM: Tyrosine-protein kinase ABL1 (Homo sapiens) + Ras and Rab interactor 1 (Homo sapiens) (UniProt P00519+Q13671)
Sequence (P00519 whole entry, looked up): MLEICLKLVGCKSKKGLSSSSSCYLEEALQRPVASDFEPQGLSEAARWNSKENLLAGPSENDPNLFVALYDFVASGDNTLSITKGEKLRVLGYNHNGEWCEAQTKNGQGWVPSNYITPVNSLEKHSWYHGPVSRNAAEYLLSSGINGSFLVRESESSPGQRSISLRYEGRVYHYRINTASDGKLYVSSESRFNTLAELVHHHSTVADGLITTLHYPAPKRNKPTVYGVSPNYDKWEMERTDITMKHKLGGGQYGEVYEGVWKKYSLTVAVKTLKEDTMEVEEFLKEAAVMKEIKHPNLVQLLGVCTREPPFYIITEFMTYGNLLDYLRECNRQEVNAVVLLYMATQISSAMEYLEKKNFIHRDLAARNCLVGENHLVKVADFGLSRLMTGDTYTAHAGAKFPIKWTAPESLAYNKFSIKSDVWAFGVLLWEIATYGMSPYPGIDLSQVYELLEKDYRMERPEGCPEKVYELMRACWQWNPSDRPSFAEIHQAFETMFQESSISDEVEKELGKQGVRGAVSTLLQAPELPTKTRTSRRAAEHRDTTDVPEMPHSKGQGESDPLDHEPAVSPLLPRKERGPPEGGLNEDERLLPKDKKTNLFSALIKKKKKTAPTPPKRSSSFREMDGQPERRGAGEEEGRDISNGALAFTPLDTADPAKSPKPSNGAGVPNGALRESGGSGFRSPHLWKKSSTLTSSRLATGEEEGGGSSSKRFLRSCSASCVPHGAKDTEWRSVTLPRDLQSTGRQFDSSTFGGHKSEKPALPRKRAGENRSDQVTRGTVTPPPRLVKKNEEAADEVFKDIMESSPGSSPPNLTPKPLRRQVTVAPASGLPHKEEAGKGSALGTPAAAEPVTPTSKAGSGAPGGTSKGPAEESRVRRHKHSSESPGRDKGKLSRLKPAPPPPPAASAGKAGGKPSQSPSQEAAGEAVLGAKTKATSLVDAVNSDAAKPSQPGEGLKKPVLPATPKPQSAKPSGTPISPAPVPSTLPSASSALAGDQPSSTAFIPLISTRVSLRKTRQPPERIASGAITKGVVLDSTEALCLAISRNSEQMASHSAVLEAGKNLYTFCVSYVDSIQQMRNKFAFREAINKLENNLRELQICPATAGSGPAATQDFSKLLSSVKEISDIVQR
Sequence (Q13671 whole entry, looked up): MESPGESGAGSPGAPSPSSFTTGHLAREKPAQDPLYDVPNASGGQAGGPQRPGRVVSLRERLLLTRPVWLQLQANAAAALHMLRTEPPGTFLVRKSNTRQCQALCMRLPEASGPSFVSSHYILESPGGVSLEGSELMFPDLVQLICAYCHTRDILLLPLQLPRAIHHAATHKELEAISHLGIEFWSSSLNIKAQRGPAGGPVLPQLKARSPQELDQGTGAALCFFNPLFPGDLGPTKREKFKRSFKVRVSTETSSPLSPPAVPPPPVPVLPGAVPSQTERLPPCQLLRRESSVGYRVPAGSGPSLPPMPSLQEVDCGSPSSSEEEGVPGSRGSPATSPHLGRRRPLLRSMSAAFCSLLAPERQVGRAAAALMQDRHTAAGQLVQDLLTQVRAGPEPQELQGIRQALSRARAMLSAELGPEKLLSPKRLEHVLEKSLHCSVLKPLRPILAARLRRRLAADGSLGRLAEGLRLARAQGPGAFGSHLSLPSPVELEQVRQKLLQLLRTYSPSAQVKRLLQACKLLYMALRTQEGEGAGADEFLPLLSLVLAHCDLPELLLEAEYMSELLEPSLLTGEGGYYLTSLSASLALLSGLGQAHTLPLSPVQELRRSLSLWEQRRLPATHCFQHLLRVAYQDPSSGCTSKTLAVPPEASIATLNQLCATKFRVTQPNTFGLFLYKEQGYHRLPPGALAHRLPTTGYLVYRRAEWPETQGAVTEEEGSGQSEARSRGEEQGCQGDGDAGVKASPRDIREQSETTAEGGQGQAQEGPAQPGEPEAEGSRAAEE
MEASUREMENT_PROTOCOL: inhibitors of Rin1-Abl protein binding, primary screen, biochemical, TR-FRET (AID 588664)
CONDITION_SUMMARY: at 7.35 µM, hits give high values
About 1,400 (0.39%) of roughly 360,000 compounds were called active. The full list was thinned out, with actives kept by preference.
ASSAY_READOUT: inhibition (%)

• CCCOc1ccc(C2C(C(=O)c3ccc(C)o3)=C(O)C(=O)N2CCCn2ccnc2)cc1 (stereo not given) = -89.7
• CCCCN(CC)CCNC(=O)c1[nH]c(C)c(C(C)=O)c1C = 6.51
• Cc1ccc(CN2CCN(Cc3ccccc3-c3ccco3)CC2CCO)o1 (stereo not given) = -0.29
• Cc1sc2ncn(CC(=O)NCCN(C)C)c(=O)c2c1S(=O)(=O)N1CCC(C)CC1 = -2.5
• O=C(C1CCCN(S(=O)(=O)c2ccc([N+](=O)[O-])cc2)C1)N1CCCCC1 (stereo not given) = 1.73
